experiment: HUVEC growth inhibition – cell-based, human, primary screen (AID 575); details: HUVEC proliferation, CellTiter-Glo luminescence, 72 h; at 10 µM;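 also: 100% = median of untreated cell wells with 0.1% DMSO on each plate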
Active and inactive are the calls of the source.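 The calls were made as follows: active = viability at or below 30% in both replicate assays; inconclusive = viability at or below 30% in just one of the two assays; inactive = the rest.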
Valid outcomes are listed here; reply with one: 1 (yes) for active, 0 (no) for inactive

Some entries whose results are on file:
compound: Cc1ccc2[nH]c(=O)c(C(c3nnnn3CCc3ccccc3)N3CCOCC3)cc2c1 (centres undefined)
assignedCategory: 0 (no)

compound: C=CCn1c(=O)[nH]c2cc(C(=O)N3CCN(c4ccc(C(C)=O)cc4)CC3)ccc2c1=O
assignedCategory: 0 (no)

How did this test come out for `CCOC(=O)N1CCN(C(=O)Nc2ccc3oc(C)nc3c2)CC1` ?
0 (no)

How did this test come out for `CCOC(=O)N1CCC(Nc2c(-c3ccc(C)cc3)c(=O)c2=O)CC1` ?
0 (no)

How did this test come out for `COc1cccc(OCC(=O)Nc2ccccc2C(N)=O)c1` ?
0 (no)

How did this test come out for `CCCCn1c(CN(C)Cc2ccccc2)nc2c1c(=O)n(C)c(=O)n2C` ?
0 (no)

How did this test come out for `O=C(Nc1nccs1)c1cccc(NC(=O)C2CC2)c1` ?
0 (no)

---

test: HUVEC growth inhibition – cell-based, human, primary screen (AID 575); conditions: HUVEC proliferation, CellTiter-Glo luminescence, 72 h; at 10 µM; stronger effect = lower value;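 also: 100% = median of untreated cell wells with 0.1% DMSO on each plate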
quantityMeasured: viability (%)
One number for each entry, in %.

Example cases with answers are listed next.
moleculeSmiles: Brc1ccc(-c2nnc3sc(CN4CCC5(CC4)OCCO5)cn23)cc1
viability [%]: 113
--
moleculeSmiles: CCOc1ccc(OCc2cccc(C(=O)N3CCCC3)c2)cc1
viability [%]: 110
--
moleculeSmiles: Cn1c(=O)c(=O)n(C)c2cc(S(=O)(=O)Nc3ccc4c(c3)OCCO4)ccc21
viability [%]: 99.5
--
moleculeSmiles: COc1cc(NC(=O)CSCc2cnn(-c3ccccc3)c2-n2cccc2)cc(OC)c1
viability [%]: 67.9

Return the recorded viability value; entry: `COC(=O)c1ccccc1NC(=O)CN1CCC(n2nnc3cc(F)ccc32)CC1`
94.9

---

assay: 384-well plate pilot, post-Golgi transport modulator project, inhibition of yeast transport mutant growth (AID 636); settings: absorbance 615 nm, about 18 h, stronger effect = higher value
The source made the active and inactive calls. Rule as the data show it: active = inhibition above about 31%; inactive = the rest.
I'd be grateful if you could share measured inhibition for these entries.

molecule: COC(=O)c1[nH]c2c(c1C)C(=O)CC(c1cccs1)C2 (stereo unspecified)
quantityMeasured: inhibition
result: -6.05% (inactive)

I need inhibition for every entry listed below, if you could help.
1. Cn1nc(C(C)(C)C)cc1C(=O)NCc1ccc(N2CCCC2=O)cc1
2. Cc1cc(C(F)(F)F)nc(NCc2cccnc2)n1
3. COc1cc(N=c2ssnc2Cl)cc(OC)c1

-5.34% (inactive)
-1.04% (inactive)
-5% (inactive)

I need inhibition for every entry listed below, if you could help.
1. c1cnc(NCCNc2ncccn2)nc1
2. O=C1CC(c2ccccc2)CC(O)=C1C=NCCCN1CCOCC1 (stereo unspecified)

-8.4% (inactive)
-1.05% (inactive)

---

experiment: growth inhibitors of H69AR lung tumor, primary screen, human, duplicate replicates (AID 580); settings: H69AR lung tumor cells viability, ATP luminescence, 72 h; at 10 µM; stronger effect = lower value;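 also: 100% = mean luminescence of untreated wells and 0% = no signal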
Mark each entry fulfilled if its viability sits below 90%, and not fulfilled for all others.

molecule: CCn1c(SCC(=O)Nc2ccc3c(c2)OCO3)nnc1-c1cnccn1
assignedCategory: not fulfilled
--
molecule: COC(=O)c1ccc(C2C(C#N)=C(N)Oc3cc(C)n(C)c(=O)c32)cc1 (configuration not stated)
assignedCategory: not fulfilled
--
molecule: CCSc1nc(N)c(C#N)c(-c2ccccc2Cl)c1C#N
assignedCategory: fulfilled
--
molecule: COc1cc2c(cc1OC)C(c1ccccc1O)N(C1CC(=O)N(c3ccccc3)C1=O)CC2 (configuration not stated)
assignedCategory: not fulfilled
--
molecule: Cc1nn(-c2ccccc2)c2c1C(O)n1c(nc3ccccc31)S2 (configuration not stated)
assignedCategory: fulfilled

Lab note: confirm whether the reported viability for this molecule is below 90%, equality not counting. molecule: `CCOC(=O)c1c(C)oc2ccc(NS(=O)(=O)c3ccc4c5c(cccc35)C(=O)N4)cc12`
fulfilled

Lab note: confirm whether the reported viability for this molecule is below 90%, equality not counting. molecule: `CCOc1ccccc1Nc1nnc(SCC(=O)N2CCCC2)s1`
not fulfilled

Lab note: confirm whether the reported viability for this molecule is below 90%, equality not counting. molecule: `COc1cc(C(=O)N(C)c2nnc(-c3cccnc3)s2)cc(OC)c1OC`
fulfilled

Lab note: confirm whether the reported viability for this molecule is below 90%, equality not counting. molecule: `CS(=O)(=O)c1ncc(Cl)c(C(=O)Nc2ccc(N3CCOCC3)cc2)n1`
fulfilled

Lab note: confirm whether the reported viability for this molecule is below 90%, equality not counting. molecule: `COc1ccccc1-c1nnc(NC(=O)c2ccc(S(=O)(=O)N(C)Cc3ccccc3)cc2)o1`
fulfilled

Lab note: confirm whether the reported viability for this molecule is below 90%, equality not counting. molecule: `Cc1ccc(CS(=O)(=O)Cc2ccc(C(=O)NCc3ccccn3)o2)cc1`
not fulfilled

Lab note: confirm whether the reported viability for this molecule is below 90%, equality not counting. molecule: CCCCN1C(=O)C2C(C(=O)Nc3cccc(OC)c3)C3C=CC2(O3)C1C(=O)NC1CCCCC1C (configuration not stated)
fulfilled

Lab note: confirm whether the reported viability for this molecule is below 90%, equality not counting. molecule: `C[N+](C)(C)CCCCCCCCCC[N+](C)(C)C`
not fulfilled

Lab note: confirm whether the reported viability for this molecule is below 90%, equality not counting. molecule: `Cc1ccc(-c2nnc(-c3ccc(Br)cc3)o2)o1`
fulfilled

Lab note: confirm whether the reported viability for this molecule is below 90%, equality not counting. molecule: `Cc1cc(C)cc(OCC(=O)NC2=NCCS2)c1`
not fulfilled

---

experiment: SK-BR-3 cell growth inhibitors, pilot screen, 24 h, human (AID 572); settings: SK-BR-3 viability, CellTiter-Glo luminescence, at 10 µM, stronger effect = lower value;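 also: compound exposure lasted between 18 and 24 h rather than exactly 24 h; 100% = carrier-treated control wells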
quantityMeasured: viability (%)
Answers are plain numbers, in %.

Example cases with answers are listed next.
compound: CS(=O)(=O)N1CCc2cc(S(=O)(=O)Nc3ccc4oc5c(c4c3)CCCC5)ccc21
unitSymbol: %
viability: 76
//
compound: Cc1cc(NCC2CCCO2)n2c(nc3ccccc32)c1C#N (stereo not drawn)
unitSymbol: %
viability: 79
//
compound: N#Cc1cc2c(nc1SCC(=O)Nc1sc3c(c1C#N)CCC3)CCCCC2
unitSymbol: %
viability: 82
//
compound: Cn1c(-c2ccccc2)cnc1SCc1nc2ccccc2c(=O)[nH]1
unitSymbol: %
viability: 107
//
compound: Cc1nc(SC2C=CS(=O)(=O)C2)n[nH]1 (stereo not drawn)
unitSymbol: %
viability: 104

I need viability for every entry listed below, if you could help.
1. CC(=O)Nc1ccc(-c2nn[nH]n2)cc1Cl
2. Cc1cnc(C(=O)NCCc2ccc(S(=O)(=O)NC(=O)NC3CCCCC3)cc2)cn1
3. COc1ccc(/C=C/C(=O)Nc2ccccc2C(=O)O)cc1OC
4. COc1ccc(S(=O)(=O)NCc2ccc(C(=O)O)cc2)cc1
5. O=C(CSc1nc(-c2ccco2)cc(C(F)(F)F)n1)N1CCCc2ccccc21
6. CCOC(=O)Cc1csc(NC(=O)CSc2nnc(-c3ccncc3)n2Cc2ccco2)n1
7. Cn1nc(CC(=O)Nc2ccc(N3CCN(C(=O)OC(C)(C)C)CC3)cc2)c2ccccc2c1=O

87
94
104
102
109
107
84

---

test: reversal of MRP1-mediated doxorubicin resistance, pilot screen, H69AR cells, doxorubicin co-treatment (AID 601); settings: H69AR cells + 2 uM doxorubicin, CellTiter-Glo, 72 h; measured here: viability with 2 uM doxorubicin; at 10 µM; stronger effect = lower value
Mark each entry Satisfied if its viability sits below 90%, and Not satisfied for all others.

Some entries whose results are on file:
molecule: O=C(c1csc2ccccc12)N1CCCCCC1
assignedCategory: Not satisfied
//
molecule: CC1(C)NC(=O)N(CC(O)CN2CCCC2)C1=O (centres undefined)
assignedCategory: Not satisfied
//
molecule: CN1CCN(CCCN2c3ccccc3Sc3ccc(Cl)cc32)CC1
assignedCategory: Satisfied
//
molecule: CC(Oc1ccccc1)C(=O)Nc1ccc(S(=O)(=O)NCC2CCCO2)cc1 (centres undefined)
assignedCategory: Not satisfied
//
molecule: c1ccc2c(-c3nc(C4CCCCC4)no3)cc(-c3ccncc3)nc2c1
assignedCategory: Satisfied

Lab note: confirm whether the reported viability for this molecule is below 90%, equality not counting. molecule: `Cc1nc2sc3c(c2c(=O)o1)CCC3`
Not satisfied

Lab note: confirm whether the reported viability for this molecule is below 90%, equality not counting. molecule: `COCCNC(=O)c1ccc(CS(=O)(=O)c2ccc(OC)cc2)o1`
Not satisfied

Lab note: confirm whether the reported viability for this molecule is below 90%, equality not counting. molecule: `O=C(Cn1ccc2ccccc2c1=O)NCCC(=O)N1CCN(C2CCCCC2)CC1`
Satisfied

Lab note: confirm whether the reported viability for this molecule is below 90%, equality not counting. molecule: `Cc1cc(C)n(-c2nc3sc4c(c3c3nnc(SC(C)C)n23)CC(C)(C)OC4)n1`
Satisfied

Lab note: confirm whether the reported viability for this molecule is below 90%, equality not counting. molecule: `O=C(Nc1ccc(Cl)cc1C(=O)O)c1ccc2c(c1)C(=O)N(Cc1ccco1)C2=O`
Satisfied

Lab note: confirm whether the reported viability for this molecule is below 90%, equality not counting. molecule: C=CCNC(=O)C1CC(=O)N(c2ccc(OCC(=O)Nc3ccc(OC)cc3)cc2)C1 (centres undefined)
Not satisfied

Lab note: confirm whether the reported viability for this molecule is below 90%, equality not counting. molecule: `c1ccc(CNC2=NCCC2)nc1`
Not satisfied

Lab note: confirm whether the reported viability for this molecule is below 90%, equality not counting. molecule: C1=CC2CC1CC2CN1CCN(c2ccccc2)CC1 (centres undefined)
Not satisfied

Lab note: confirm whether the reported viability for this molecule is below 90%, equality not counting. molecule: `CCOc1ccccc1N1CC(O)=C(c2nc3ccccc3s2)C1=N`
Satisfied

Lab note: confirm whether the reported viability for this molecule is below 90%, equality not counting. molecule: `COc1cc(OC)cc(-c2nc(N)n[nH]2)c1`
Not satisfied

Lab note: confirm whether the reported viability for this molecule is below 90%, equality not counting. molecule: `CC(C)(C)c1nc(CN2CCOCC2)ccc1O`
Not satisfied

Lab note: confirm whether the reported viability for this molecule is below 90%, equality not counting. molecule: `CCOC(=O)c1cc(-c2ccccc2)sc1N`
Satisfied
